Record form. Attribute: IC50. Fill in for each entry.
System: BT474 and HN5 tumor cell lines
procedure details: Methylene blue growth inhibition assay (cellular Method A)
Assay type: cell-based, Human
test conditions: Homo sapiens, BT-474, 72 h, 3 days, read-out: Activity (Method): growth inhibition IC50 class
Procedure: Human breast (BT474) and head and neck (HN5) were cultured in low glucose DMEM (Life Technologies 12320-032) containing 10% fetal bovine serum (FBS). Human colon tumor cells (Colo205) were cultured in DMEM (Invitrogen, 10564) containing 10% FBS. […] Cells were harvested using trypsin/EDTA, counted using a haemocytometer, and plated in 100 microliters of the appropriate media, at the following densities, in a 96-well tissue culture plate (Falcon 3075): BT474 10,000 cells/well, HN5 3,000 cells/well. […]

Ask | What IC50 value was documented for this compound, NS(=O)(=O)CCc1cccc(Nc2nccc(-c3c(-c4cccc(NC(=O)c5c(F)cccc5F)c4)nn4ccccc34)n2)c1 [Example 119] ?
Reply | < 0.1 µM

Ask | And what about the compound O=C(Nc1cccc(-c2nn3ccccc3c2-c2ccnc(Nc3cccc(F)c3)n2)c1)c1cc(F)ccc1Cl [Example 11] ?
Reply | 0.1 to 1 µM

Ask | And what about the compound CN1CCc2ccc(Nc3nccc(-c4c(-c5cccc(NC(=O)c6ccccc6)c5)nn5ccccc45)n3)cc2C1 [Example 63] ?
Reply | < 0.1 µM

Ask | And what about the compound Cc1cccc2c(-c3ccnc(Nc4cccc(C(F)(F)F)c4)n3)c(-c3cccc(NC(=O)c4c(F)cccc4F)c3)nn12 [Example 155] ?
Reply | 0.1 to 1 µM

Ask | And what about the compound O=C(Nc1cccc(-c2nn3ccccc3c2-c2ccnc(Nc3cccc(CCCN4CCOCC4)c3)n2)c1)c1c(F)cccc1F [Example 55] ?
Reply | < 0.1 µM

Ask | And what about the compound CN1CCN(c2cccc(Nc3nccc(-c4c(-c5cccc(NC(=O)c6c(F)cccc6F)c5)nn5ccccc45)n3)c2)CC1 [Example 109] ?
Reply | < 0.1 µM

Ask | And what about the compound O=C(Nc1cccc(-c2nn3ccccc3c2-c2ccnc(Nc3cccc(F)c3)n2)c1)c1cccc(F)c1F [Example 14] ?
Reply | < 0.1 µM

Ask | And what about the compound O=C(Nc1cccc(-c2nn3ccccc3c2-c2ccnc(Nc3ccc(OCCN4CCCC4=O)c(F)c3)n2)c1)c1c(F)cccc1F [Example 133] ?
Reply | < 0.1 µM

Ask | And what about the compound O=C(Nc1cccc(-c2nn3ccccc3c2-c2ccnc(Nc3ccc(CCN4CCOCC4)cc3)n2)c1)c1c(F)cccc1F [Example 56] ?
Reply | < 0.1 µM

Ask | And what about the compound Cn1cccc1C(=O)Nc1cccc(-c2nn3ccccc3c2-c2ccnc(Nc3ccccc3)n2)c1 [Example 149] ?
Reply | 0.1 to 1 µM

Ask | And what about the compound O=C(Nc1cccc(-c2nn3ccccc3c2-c2ccnc(Nc3ccc(C(=O)N4CCOCC4)cc3)n2)c1)c1c(F)cccc1F [Example 100] ?
Reply | < 0.1 µM

Ask | And what about the compound N#Cc1cccc(Nc2nccc(-c3c(-c4cccc(NC(=O)c5cc(F)ccc5F)c4)nn4ccccc34)n2)c1 [Example 48] ?
Reply | < 0.1 µM

Ask | And what about the compound O=C(Nc1cccc(-c2nn3ccccc3c2-c2ccnc(Nc3ccc(N4CCCC4=O)cc3)n2)c1)c1cc(F)ccc1F [Example 50] ?
Reply | 0.1 to 1 µM

Ask | And what about the compound O=C(Nc1cccc(-c2nn3ccccc3c2-c2ccnc(Nc3ccon3)n2)c1)c1c(F)cccc1F [Example 85] ?
Reply | 0.1 to 1 µM
